test system: T-47D breast; assay: NCI tumour cell line growth inhibition, 48 h
Can you tell me TGI for the items I'm about to list?

Query string: Give a short answer stating reported TGI for CNC(=O)c1[nH]cnc1/N=N/N(C)N .
Result string: > 100 µM

Query string: Give a short answer stating reported TGI for CC1C(=O)C(C)C(c2ccccc2)N(N=O)C1c1ccccc1 (stereo not drawn) .
Result string: 311 µM

Query string: Give a short answer stating reported TGI for Cc1ccc(Nc2cc(=O)[nH]c(=S)[nH]2)cc1 .
Result string: > 100 µM

Query string: Give a short answer stating reported TGI for COc1cccc(NC(=O)CC(=O)N2N=C(C)C(N=Nc3ccc(S(=O)(=O)c4ccc(N=NC5C(=O)N(C(=O)CC(=O)Nc6cccc(OC)c6)N=C5C)cc4)cc3)C2=O)c1 (stereo not drawn) .
Result string: > 100 µM

Query string: Give a short answer stating reported TGI for Cc1cccc(NC(=S)N=Nc2c(O)[nH]c3ccccc23)c1 .
Result string: > 100 µM

Query string: Give a short answer stating reported TGI for N#Cc1c(NC(=S)NC(=O)c2ccccc2)nc2c(c1-c1ccccc1)CCCC2 .
Result string: > 100 µM

Query string: Give a short answer stating reported TGI for Cc1nc2c(sc3nc4ccccc4n32)c(=O)[nH]1 .
Result string: > 100 µM

Query string: Give a short answer stating reported TGI for COCCOCCOC1=C(Cl)C(=O)c2c(O)ccc(O)c2C1=O .
Result string: 6.64 µM

Query string: Give a short answer stating reported TGI for CC(=O)Nc1ccc2[nH]c(-c3cccc(F)c3)cc(=O)c2c1 .
Result string: > 100 µM

Query string: Give a short answer stating reported TGI for NCc1ccc(C(=O)O)cc1 .
Result string: > 100 µM

Query string: Give a short answer stating reported TGI for Fc1cccc(COc2ccc(Nc3ncnc4cc(-c5ccc[nH]5)sc34)cc2Cl)c1 .
Result string: 7.35 µM

Query string: Give a short answer stating reported TGI for Cc1ccc(S(N)(=O)=O)cc1 .
Result string: > 1000 µM

Query string: Give a short answer stating reported TGI for CNC1=CC(=O)C2=C(C1=O)[C@H]1CC[C@]3(C)C(=O)CC[C@H]3[C@@H]1CC2 .
Result string: 57.9 µM

Query string: Give a short answer stating reported TGI for COC(=O)/C=c1/c2ccccc2n2nc3ccccc3c12 .
Result string: > 100 µM

Query string: Give a short answer stating reported TGI for CN(CCc1ccc(N)cc1)[C@H]1CCCC[C@H]1N1CCCC1 .
Result string: > 100 µM

Query string: Give a short answer stating reported TGI for N/C(=N/n1c(=S)[nH]c2ccccc2c1=O)Nn1c(=S)[nH]c2ccccc2c1=O .
Result string: 66.3 µM

Query string: Give a short answer stating reported TGI for COc1ccc(-c2cc(-c3cc(OC)c(OC)c(OC)c3)cc(-c3cc4ccccc4oc3=O)n2)cc1 .
Result string: 26 µM

Query string: Give a short answer stating reported TGI for COC(=O)c1c(C)cccc1/C=C1\Cc2cc(C)cc(C)c2C1=O .
Result string: > 100 µM

Query string: Give a short answer stating reported TGI for COc1cc(COC(=O)N2CCC2C(=O)O)c([N+](=O)[O-])cc1OC (stereo not drawn) .
Result string: > 100 µM

Query string: Give a short answer stating reported TGI for Brc1ccc2[nH]cc(-c3nc(-c4c[nH]c5ccccc45)cs3)c2c1 .
Result string: 31.7 µM

Query string: Give a short answer stating reported TGI for ClCc1c(Cl)c(Cl)c(Cl)c(CCl)c1Cl .
Result string: 3.87 µM

Query string: Give a short answer stating reported TGI for O=[N+]([O-])c1ccc2nc(/C=C(\O)c3ccc(F)cc3)c(/C=C(\O)c3ccc(F)cc3)nc2c1 .
Result string: > 100 µM

Query string: Give a short answer stating reported TGI for COc1cccc(-c2cc(=O)c3c(C)ccnc3[nH]2)c1 .
Result string: > 100 µM

* * *

system: NCI-H23 lung; assay: NCI tumour cell line growth inhibition, 48 h
Can you tell me GI50 for the items I'm about to list?

Query string: Give a short answer stating reported GI50 for C=C1CC[C@@H]2[C@](C)(COC(C)=O)[C@H](OC(C)=O)CC[C@@]2(C)[C@@H]1CC(Nc1ccc(S(=O)(=O)Nc2nccc(C)n2)cc1)C1=CCOC1=O (stereo not given in full) .
Result string: 3.78 µM

Query string: Give a short answer stating reported GI50 for COc1ccc(-c2cn(-c3ccccc3)c(-c3ccccc3)n2)cc1OC .
Result string: 5.51 µM

Query string: Give a short answer stating reported GI50 for CCOP(=O)(OCC)C(NC(c1ccccc1)c1ccccc1)c1cccc2ccccc12 (stereo not given) .
Result string: 13.3 µM

Query string: Give a short answer stating reported GI50 for CO/N=C(\C)c1ccc(Nc2cc(-c3ccccc3)nc3c(O)cccc23)cc1 .
Result string: 14.9 µM

Query string: Give a short answer stating reported GI50 for COc1ccc(-c2cncn2-c2ccc(OC)cc2)cc1 .
Result string: 19.1 µM

* * *

Can you tell me TGI for the items I'm about to list?
system: SF-295 CNS; test: NCI tumour cell line growth inhibition, 48 h

Query string: For SF-295 CNS, give TGI of the listed molecule: CCOC(=O)/C=C(\C)c1ccc(OC)cc1
Result string: > 100 µM

Query string: For SF-295 CNS, give TGI of the listed molecule: CNC1=CC(=O)C2=C(C1=O)[C@H]1CC[C@]3(C)C(=O)CC[C@H]3[C@@H]1CC2
Result string: 29.1 µM

Query string: For SF-295 CNS, give TGI of the listed molecule: CC(=O)OCC1OC(n2ccc(=O)[nH]c2=O)C(OC(C)=O)C1OC(C)=O (stereo unspecified)
Result string: > 100 µM

Query string: For SF-295 CNS, give TGI of the listed molecule: O=[N+]([O-])c1cn[n+]([O-])c2ccccc12
Result string: 17.6 µM

Query string: For SF-295 CNS, give TGI of the listed molecule: CCCCOC(=O)C(O)Cc1ccoc1 (stereo unspecified)
Result string: > 100 µM

Query string: For SF-295 CNS, give TGI of the listed molecule: CC1=C(O)C(=O)C2C(=O)C1C(C)C2c1ccc(Cl)cc1 (stereo unspecified)
Result string: > 100 µM

Query string: For SF-295 CNS, give TGI of the listed molecule: CSC1=C(c2ccc(Cl)cc2)SC(N2CCCCC2)N1c1ccc([N+](=O)[O-])cc1 (stereo unspecified)
Result string: 61.2 µM

Query string: For SF-295 CNS, give TGI of the listed molecule: COc1cc(Nc2nc(N[C@H]3CCCC[C@@H]3N)nc3cc[nH]c(=O)c23)cc(OC)c1
Result string: 4.46 µM

Query string: For SF-295 CNS, give TGI of the listed molecule: CCOC(=O)NN1C(=O)C(=P(c2ccccc2)(c2ccccc2)c2ccccc2)C(C(=O)OCC)=C1C
Result string: > 100 µM

Query string: For SF-295 CNS, give TGI of the listed molecule: Fc1cccc(COc2ccc(Nc3ncnc4cc(-c5ccc[nH]5)sc34)cc2Cl)c1
Result string: > 19.9 µM

Query string: For SF-295 CNS, give TGI of the listed molecule: Cn1c(-c2cccs2)cc(-c2cccs2)c1-c1ccsc1
Result string: > 100 µM

* * *

test system: HT29 colon; test: NCI tumour cell line growth inhibition, 48 h
ASSAY_ENDPOINT: TGI

Query string: Give a short answer stating reported TGI for CC(=O)OC1c2ccccc2CCCCCCC12OCCO2 (stereo not given) .
Result string: > 100 µM

Query string: Give a short answer stating reported TGI for CCCCCCCCCCCCCCCC(=O)OCC1OC(n2c(O)c(N=NC(N)=S)c3ccc([N+](=O)[O-])cc32)C(OC(C)=O)C1OC(C)=O (stereo not given) .
Result string: > 100 µM

Query string: Give a short answer stating reported TGI for COc1cc(Nc2nc(N[C@H]3CCCC[C@@H]3N)nc3cc[nH]c(=O)c23)cc(OC)c1 .
Result string: 3.69 µM

Query string: Give a short answer stating reported TGI for CCC(CCCC[C@@H]1CC[C@H]2CC(=O)C[C@@H]12)OC (stereo not given in full) .
Result string: > 100 µM

Query string: Give a short answer stating reported TGI for CC12Cc3cc4c(cc3C1(c1ccc([N+](=O)[O-])cc1)OCCO2)OCO4 (stereo not given) .
Result string: > 100 µM

Query string: Give a short answer stating reported TGI for CN1CN(c2ccccc2)C2(CCN(CCc3csc4ccccc34)CC2)C1=O .
Result string: 17.8 µM

Query string: Give a short answer stating reported TGI for CNC(=S)N/N=C/c1cccc(C)n1 .
Result string: > 100 µM

Query string: Give a short answer stating reported TGI for COC(=O)c1csc(-c2nc(CCNC(=O)OC(C)(C)C)sc2Br)n1 .
Result string: > 100 µM

Query string: Give a short answer stating reported TGI for S=c1[nH]c(=S)c2cc(Sc3ccc4[nH]c(=S)[nH]c(=S)c4c3)ccc2[nH]1 .
Result string: > 100 µM

Query string: Give a short answer stating reported TGI for CN(C)C(=S)N=Nc1c(O)[nH]c2ccccc12 .
Result string: 17 µM
